Measured Gram Absorption Coefficient at λmax, listed per entry.
test: wavelength (λmax) at absorption spectrum peak and gram absorption coefficient at λmax; format: physicochemical

- Molecule: "COc1ccc(C=CC(=O)n2ccnc2)c(O)c1 [compound 9, reference compound]"
  Gram Absorption Coefficient at λmax: 65
- Molecule: "CCN(CC)C(=O)/C=C/c1ccc(OC)c([N+](=O)[O-])c1"
  Gram Absorption Coefficient at λmax: 119
- Molecule: "COc1ccc(/C=C/C(=O)Nc2ccccc2)cc1"
  Gram Absorption Coefficient at λmax: 117
- Molecule: "COc1ccc(/C=C(\\C)C(=O)n2ccnc2)c([N+](=O)[O-])c1"
  Gram Absorption Coefficient at λmax: 137
